# credit: patent US20220175944A1

- assayedTarget: Human CD117 on Kasumi-1 cells or primary human CD34+ bone marrow cells (human, UniProt P10721 26-976)
- Sequence (P10721 26-976 limits assumed): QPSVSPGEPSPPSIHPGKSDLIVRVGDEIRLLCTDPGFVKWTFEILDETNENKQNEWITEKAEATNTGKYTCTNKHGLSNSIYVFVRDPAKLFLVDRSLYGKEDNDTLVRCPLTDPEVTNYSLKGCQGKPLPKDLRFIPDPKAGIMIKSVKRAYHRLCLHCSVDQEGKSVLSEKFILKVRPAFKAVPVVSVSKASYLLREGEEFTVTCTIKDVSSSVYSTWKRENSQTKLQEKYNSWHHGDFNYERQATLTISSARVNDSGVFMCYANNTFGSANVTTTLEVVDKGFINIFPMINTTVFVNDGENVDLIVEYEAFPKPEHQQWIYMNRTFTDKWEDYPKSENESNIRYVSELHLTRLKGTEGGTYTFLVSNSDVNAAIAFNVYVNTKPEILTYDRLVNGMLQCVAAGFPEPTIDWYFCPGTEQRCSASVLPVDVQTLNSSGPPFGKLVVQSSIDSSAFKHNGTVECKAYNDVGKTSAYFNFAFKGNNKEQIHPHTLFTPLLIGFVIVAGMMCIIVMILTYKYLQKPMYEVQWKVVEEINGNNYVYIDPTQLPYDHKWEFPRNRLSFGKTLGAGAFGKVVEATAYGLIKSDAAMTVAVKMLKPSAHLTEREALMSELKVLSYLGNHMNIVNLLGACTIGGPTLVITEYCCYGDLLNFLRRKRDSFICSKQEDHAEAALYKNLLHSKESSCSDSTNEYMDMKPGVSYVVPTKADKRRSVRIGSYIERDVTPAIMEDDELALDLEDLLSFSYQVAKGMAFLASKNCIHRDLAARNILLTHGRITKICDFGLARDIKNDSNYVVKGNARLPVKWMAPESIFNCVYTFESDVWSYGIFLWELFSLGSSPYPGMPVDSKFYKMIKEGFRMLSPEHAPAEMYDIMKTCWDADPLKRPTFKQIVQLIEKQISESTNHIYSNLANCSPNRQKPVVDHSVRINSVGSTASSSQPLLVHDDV
- assayComment: cell-based or functional assay
For each of the binders below, state its % Efficacy, in vitro Kasumi cell killing assay.
One number for each entry, in %.

{"columns": ["binder", "unitAbbreviation", "measuredValue"],
 "data": [
  ["CK6 S239C-DM (duocarmycin) (antibody, V domains shown, duocarmycin (DM) conjugated to the antibody, Fc modification S239C, DAR 1.65) VH: QVQLVQSGAAVKKPGESLKISCKGSGYRFTSYWIGWVRQMPGKGLEWMGIIYPGDSDTRYSPSFQGQVTISAGKSISTAYLQWSSLKASDTAMYYCARHGRGYNGYEGAFDIWGQGTMVTVSS VL: AIQLTQSPSSLSASVGDRVTITCRASQGISSALAWYQQKPGKAPKLLIYDASSLESGVPSRFSGSGSGTDFTLTISSLQPEDFATYYCQQFNSYPLTFGGGTKVEIK", "%", 0],
  ["CK6 S239C-D4 (calicheamicin) (antibody, V domains shown, calicheamicin (D4) conjugated to the antibody, Fc modification S239C, DAR 1.72) VH: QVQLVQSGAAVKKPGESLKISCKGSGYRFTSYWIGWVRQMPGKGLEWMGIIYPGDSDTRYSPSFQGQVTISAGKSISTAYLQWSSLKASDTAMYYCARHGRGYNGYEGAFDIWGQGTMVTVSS VL: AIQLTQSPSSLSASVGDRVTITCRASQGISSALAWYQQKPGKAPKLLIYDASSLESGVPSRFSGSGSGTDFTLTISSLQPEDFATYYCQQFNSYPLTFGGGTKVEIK", "%", 0]
]}

Pending binder:
Reported % Efficacy, in vitro Kasumi cell killing assay, binder CK6 S239C-PNU (antibody, V domains shown, PNU (DNA topoisomerase I/II inhibitor) conjugated to the antibody, Fc modification S239C, DAR 1.4) VH: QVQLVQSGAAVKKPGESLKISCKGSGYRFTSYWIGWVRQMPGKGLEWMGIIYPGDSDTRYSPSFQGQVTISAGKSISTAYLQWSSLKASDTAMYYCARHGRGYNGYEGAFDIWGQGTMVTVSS VL: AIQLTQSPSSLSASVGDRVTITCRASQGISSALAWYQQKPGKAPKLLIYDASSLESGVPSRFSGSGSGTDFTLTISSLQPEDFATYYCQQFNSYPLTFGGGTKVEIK : ____
85.7
